// merged dataset of IC50 values, system = Receptor tyrosine-protein kinase erbB-2 (Homo sapiens), multiple refs

[
  {
    "Molecule": "NC1CCN(Cc2ccn3ncnc(Nc4ccc(Oc5ccn6ncnc6c5)c(Cl)c4F)c23)CC1",
    "Target or test system": "Receptor tyrosine-protein kinase erbB-2 (Homo sapiens)",
    "IC50": "2 nM"
  },
  {
    "Molecule": "CC(=O)N1CCN(c2ccc(Nc3nccc(-c4sc(C(C)C)nc4-c4cccc(NS(=O)(=O)c5cc(F)ccc5F)c4)n3)cn2)CC1",
    "Target or test system": "Receptor tyrosine-protein kinase erbB-2 (Homo sapiens)",
    "IC50": "> 1000 nM"
  },
  {
    "Molecule": "COc1cc(Nc2ncnc(-n3c(NCc4ccc(OC(F)(F)F)cc4)nc4ccccc43)n2)cc(OC)c1OC",
    "Target or test system": "Receptor tyrosine-protein kinase erbB-2 (Homo sapiens)",
    "IC50": "4230 to 6170 nM"
  },
  {
    "Molecule": "COc1ccc(Nc2ncnc(N(C)c3ccc([N+](=O)[O-])cc3)n2)cc1OC",
    "Target or test system": "Receptor tyrosine-protein kinase erbB-2 (Homo sapiens)",
    "IC50": "> 11800 nM"
  },
  {
    "Molecule": "COc1cc(Nc2ncnc(-n3c(NCc4ccc(C)cc4)nc4ccccc43)n2)cc(OC)c1OC",
    "Target or test system": "Receptor tyrosine-protein kinase erbB-2 (Homo sapiens)",
    "IC50": "> 9040 nM"
  },
  {
    "Molecule": "CN1CCN(Cc2ccc(-c3cc4c(Nc5ccc(F)c(Cl)c5)ncnc4[nH]3)cc2)CC1",
    "Target or test system": "Receptor tyrosine-protein kinase erbB-2 (Homo sapiens)",
    "IC50": "6.7 nM"
  }
]

// query Could you share what IC50 was measured for `CN(C)C/C=C/C(=O)N1CCOc2c1ccc1ncnc(Nc3ccc(SCc4ccccc4)cc3)c21` , tested on Receptor tyrosine-protein kinase erbB-2 (Homo sapiens)?
// result ≤ 50 nM

// query Another: `N#Cc1cnc2sc(C(=O)Nc3ccc(CCN4CCOCC4)cc3)c3c2c1N(c1c(Cl)ccc2c1OCO2)C(=O)N3`
// result > 1000 nM

// query What do you have for `NC(=O)c1ccccc1Nc1ncnc(-n2c(N)nc3ccccc32)n1` ?
// result 10100 to 13000 nM

// query Request: `CN(c1cccc(Cl)c1)c1ncnc(Nc2cccc(Cc3nnn[nH]3)c2)n1`
// result < 1020 nM

// query Let us now turn to Fc1cccc(COc2ccc(Nc3ncnc4ccc(-c5ccc(CNCC6CCCC(Cl)C6)o5)cc34)cc2Cl)c1 (centres unmarked)
// result > 10000 nM

// query What do you have for `Brc1cccc(Nc2ncnc(Nc3cccc(Cn4ccnn4)c3)n2)c1` ?
// result < 945 nM

// query Thanks! And `CCOc1cccc(Nc2ncnc(N3CCCc4cc(C)ccc43)n2)c1` ?
// result 1110 to 6640 nM

// query Then `COc1cc(Nc2ncnc(N3CCCc4cc(C)ccc43)n2)cc(OC)c1OC` ?
// result 982 to 5890 nM

// query What would you report for `CN1CCN(Cc2ccc(-c3cc4c(NCc5ccccc5Cl)ncnc4[nH]3)cc2)CC1` ?
// result 16 nM

// query Then this molecule: `CN(c1cccc(Cl)c1)c1ncnc(Nc2ccc(Cl)c(Cl)c2)n1`
// result > 11800 nM

// query Do the same for COc1cc(Nc2ncnc(N3c4ccccc4CC3C)n2)cc(OC)c1OC (centres unmarked) please
// result 1020 to 6100 nM
